# system_tested: T1, glucose-dependent insulinotropic peptide (gastric inhibitory polypeptide) receptor (GIPR), primary cAMP assay … (human, UniProt P48546 22-466)
# T1 sequence (looked up): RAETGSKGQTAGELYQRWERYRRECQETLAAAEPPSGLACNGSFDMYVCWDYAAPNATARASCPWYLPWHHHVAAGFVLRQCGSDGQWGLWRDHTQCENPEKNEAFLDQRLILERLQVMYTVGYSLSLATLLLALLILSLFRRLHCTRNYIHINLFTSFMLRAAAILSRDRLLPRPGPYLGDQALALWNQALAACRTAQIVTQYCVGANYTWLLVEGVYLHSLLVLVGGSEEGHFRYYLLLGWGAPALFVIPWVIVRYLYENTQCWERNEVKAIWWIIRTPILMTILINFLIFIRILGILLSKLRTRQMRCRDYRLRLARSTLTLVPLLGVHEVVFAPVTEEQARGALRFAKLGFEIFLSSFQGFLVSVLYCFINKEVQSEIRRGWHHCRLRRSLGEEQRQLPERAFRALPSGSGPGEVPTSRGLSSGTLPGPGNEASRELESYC
# protocol_description: cell-based or functional assay
Starred links: 1 amine or outer side, 2 acyl side, 3 side chain; linkers in the order of their positions; H or OH if unused. Non-standard residues stand in square brackets, D forms with d. Groups on a side chain read outwards from the residue. Primed or numbered codes have the meaning given here. No end group written: not given here. *: point of attachment. γGlu = O=C(O)[C@H](CCC(=O)[*:2])N[*:1]; αMeF = C[C@](N)(Cc1ccccc1)C(=O)O; αMeK = C[C@](N)(CCCCN)C(=O)O; Lauroyl = CCCCCCCCCCCC(=O)*; αMeS = C[C@](N)(CO)C(=O)O; PEG2′ = not defined here; Aib = CC(C)(N)C(=O)O
Would you mind telling me the reported cAMP Primary assay EC50, n2 of each entry?
Give bare numbers, in nM.

Known cAMP Primary assay EC50, n2 results, listed for orientation:
# cAMP Primary assay EC50, n2 (binder: H[Aib]EGS[αMeF]TSDV[αMeS]SYK([PEG2′-PEG2′-γGlu-Lauroyl])EGEK([PEG2′-PEG2′-γGlu-Lauroyl])A[αMeK]EFIAK([PEG2′-PEG2′-γGlu-Lauroyl])VVEGG-NH2 [SEQ ID NO: 469] ) is 19.8

# cAMP Primary assay EC50, n2 (binder: H[Aib]EGS[αMeF]TSDK([PEG2′-PEG2′-γGlu-Lauroyl])SSYLEGK([PEG2′-PEG2′-γGlu-Lauroyl])AA[αMeK]EFIAK([PEG2′-PEG2′-γGlu-Lauroyl])VVEGG-NH2 [SEQ ID NO: 456] ) is 20

# cAMP Primary assay EC50, n2 (binder: H[Aib]EGS[αMeF]TSDV[αMeS]SYK([PEG2′-PEG2′-γGlu-Lauroyl])EGEAA[αMeK]K([PEG2′-PEG2′-γGlu-Lauroyl])FIAK([PEG2′-PEG2′-γGlu-Lauroyl])VVEGG-NH2 [SEQ ID NO: 470] ) is 20

# cAMP Primary assay EC50, n2 (binder: H[Aib]EGS[αMeF]TSDV[αMeS]SYK([PEG2′-PEG2′-γGlu-Lauroyl])EGEAA[αMeK]K([PEG2′-PEG2′-γGlu-Lauroyl])FIK([PEG2′-PEG2′-γGlu-Lauroyl])FVVEGG-NH2 [SEQ ID NO: 454] ) is 19.7

Turning now to a further binder:
# cAMP Primary assay EC50, n2 (binder: H[Aib]EGS[αMeF]TSDV[αMeS]SK([PEG2′-PEG2′-γGlu-Lauroyl])LEK([PEG2′-PEG2′-γGlu-Lauroyl])EAA[αMeK]EFIAK([PEG2′-PEG2′-γGlu-Lauroyl])VVEGG-NH2 [SEQ ID NO: 463] ) is 20
